Would you mind telling me the reported apparent KD of MS2 coat protein of each entry?
Test system: MS2 coat protein
Assay: apparent KD of MS2 coat protein; designed switch direction (-1 OFF switch, 1 ON switch): 1; higher = weaker reporter binding
Conditions: input ligand: FMN 200 uM
Give bare numbers, in µM.

# apparent KD of MS2 coat protein lookup, item GUAGCAUACCGAGGAUAUUCAUAUUACAUGAGGAUCACCCAUGUAAGGCCACAUUAGUGGCCUUGGGAGAAGGCGGAAUGCUAC [Xeonanis - 20 Mod42] (Eterna round: R96, puzzle: Same State NG 2)
0.0183

Continuing:
# apparent KD of MS2 coat protein lookup, item GCUGGAAACCACAUGAGGAUCACCCAUGUUCCGGAAACGGCACAGGAUAUCUGUCCGAAAAGGUCAGAGAAGGGUGGAACCAGC [Fiskers NG3ss - 82] (Eterna round: R96, puzzle: Same State NG 3)
0.221

----------
Test system: MS2 coat protein
Assay: apparent KD of MS2 coat protein, switch OFF state (with FMN for OFF switches, without FMN for ON switches); designed switch direction (-1 OFF switch, 1 ON switch): -1; higher = weaker reporter binding
Conditions: FMN input: 0 or 200 uM; Eterna round: R93 (includes R88 designs)
Would you mind telling me the reported apparent KD of MS2 coat protein of each entry?
Give bare numbers, in nM.

Please review the entries below; each comes with its answer.
# apparent KD of MS2 coat protein lookup, item AAAAAACAUGAGGAUCACCCAUGUAAGGAUAUGCUCGUGCGAAAAAGCACAAAAAAGAGCAGAAGGUACAAAAA [66%, Wbt, 40]
34.4

# apparent KD of MS2 coat protein lookup, item AAAAAACAUGAGGAUCACCCAUGUGAGGAUAUACGAAAGUAGAAGGCACUAAAAAAAAAAAGAAGGAAAAAAAA [Meechl Ex1 R2 m0]
42.4

# apparent KD of MS2 coat protein lookup, item CUCAUGUGAGGAUAUGUACAGAAAAAAAUGGGUGAAACUGUACAGAAGGCACAUGAGGAUCACCCAUGUGCCAA [EX4 376: S S Pseudoknot 1]
16.3

# apparent KD of MS2 coat protein lookup, item GUAAACCUAGGAUAUACAUGAGGAUCACCCAUGUAAAGUUUCGUAAAAAGAAAAUCGAGUAGAAGGAGGUAGAU [JR_Exc003_Sub1222]
26.6

# apparent KD of MS2 coat protein lookup, item AGUGAGUGAGGAUAUGCCUGAAGAAUAAAAGAAAUAACGAGGCAGAAGGCACAUGAGGAUCACCCAUGUACACA [May 65]
28.2

# apparent KD of MS2 coat protein lookup, item CAAAAGCUAGGAUAUGCUAAUUGUUCCUUAAGUCAAAAUAAACAUGAGGAUCACCCAUGUAGAAGGAGCCCACA [Tegean]
16.9

Alright, here's another sequence for you.
# apparent KD of MS2 coat protein lookup, item AGCAAGUGAGGAUAUCUGGAUAGGAAAAAGAAAACCUAUCCAGAGAAGGCACAUGAGGAUCACCCAUGUAAAAA [JL cataway mod 7]
41.4

----------
Would you mind telling me the reported apparent KD of MS2 coat protein of each entry?
System: MS2 coat protein
Assay: apparent KD of MS2 coat protein; designed switch direction (-1 OFF switch, 1 ON switch): 1; higher = weaker reporter binding
Conditions: input ligand: FMN 200 uM
Answer by giving the amount and then stating its unit.

Please review the entries below; each comes with its answer.
# apparent KD of MS2 coat protein lookup, item CUGUAUCGCGGAGGAUAUGGGCUGAGACCAGGACAACCCUGGUCAACAUGAGGAUCACCCAUGUCCCAGAAGGCCGCGAUGCUA [Zazalaonor] (Eterna round: R96, puzzle: Same State NG 2)
0.0161 µM

# apparent KD of MS2 coat protein lookup, item AGUCCAGCCAGAGCUGGACAAAAGCAUGUACAUGAGGAUCACCCAUGUUCAUGUACAAGCUUUUUGCUCGUCUUAAU [Mat - hsa-mir-208a - Mod of JL - 59] (Eterna round: R96, puzzle: Sensor for hsa-mir-208a)
0.62 µM

# apparent KD of MS2 coat protein lookup, item UGAAUAGUGAUAGGAUAUACAUGAGGAAUCCUCGUAGAAGGAUCACGACAUGAGGAUCACCCAUGUAGCCGUCCGUAGACGGCA [Mat - Same State NG 1 - JL mod - D59] (Eterna round: R96, puzzle: Same State NG 1)
0.353 µM

# apparent KD of MS2 coat protein lookup, item GCUCGGACGAUGACCCACAUGAGGAUCACCCAUGUGCUUGGGCAGGAUAUCUAGAUUAAGGAUGUAGAGAAGGGUCGACCGAGC [SameState NG3 #29] (Eterna round: R96, puzzle: Same State NG 3)
0.345 µM

# apparent KD of MS2 coat protein lookup, item AACAUGAGGAUCACCCAUGUGGAAUACUGAAGCAGCUCAGGGAAGGAUAUGGUUGACACCCUCGACCAGAAGGUCCAAAUUAAA [Onarar] (Eterna round: R96, puzzle: Same State NG 3)
0.0633 µM

# apparent KD of MS2 coat protein lookup, item GGUAUUAACACAGGAUAUGCUUACGAAACGUAAGCAGAAGGGUGGACAUGAGGAUCACCCAUGUUUGUACCAGGGCGUGAGCCC [JL SSNG1 1.71] (Eterna round: R96, puzzle: Same State NG 1)
0.0685 µM

Provide the reported apparent KD of MS2 coat protein of each entry below, same order.
1. UGAAUAAUGAUAGGAUAUACAUGAGGAAUCCUCGUAGAAGGAUCAUGACAUGAGGAUCACCCAUGUAGCGCUCGAAAGAGCGCA [Mat - Same State NG 1 - JL mod - D52] (Eterna round: R96, puzzle: Same State NG 1)
2. GGUAUGGACACAGGAUAUGCUAUCCUUUGGGUAGCAGAAGGGUGAACAUGAGGAUCACCCAUGUACGUGCCAGGGCGUGAGCCC [JL SSNG1 1.78] (Eterna round: R96, puzzle: Same State NG 1)
3. UAAGGACAUGAGGAUCACCCAUGUGCUUCAUAUGGAGAAUCUCAGGAUAUCCUGAGGAUCACCCAGGAGAAGGGAGAUCCGAGG (Eterna round: R96, puzzle: Same State NG 3)
4. UUAGCGACGGAAGGAUAUUGGACGCUAACAUGAGGAUCACCCAUGUAGAGGUCCUACCAACAGCGCAAGAAGGUCCGAUCAGCA [Eternabot solution 13] (Eterna round: R96, puzzle: Same State NG 2)
5. GGUAGGUUACUACCAAACUACAUGAGGAUCACCCAUGUGUGGGAGGAUAUGGUACCUAUUUGGUACCAGAAGGUCCAAUUAAUU [Fiskers NG3ss - 6] (Eterna round: R96, puzzle: Same State NG 3)
6. CCGCUCCGUGGAGGAUAUGGGCCUGCCCGGGAUACCGGGCCUAACACAUGAGGAUCACCCAUGUCCCAGAAGGCCGCUGGAGCC [Rasoleis] (Eterna round: R96, puzzle: Same State NG 2)
7. AUAAUUUAUGCAGGAUAUGAUUAACAUGAGGAUCACCCAUGUGGUGUUGUGAGUAAGGAGAGUGAUCAGAAGGGCAUUUUUUUU [JMF's solution 70] (Eterna round: R96, puzzle: Same State NG 2)
8. AGCUAUUAAUCAGGAUAUGGUCACAUGAGGAUCACCCAUGUAUAGAUGAUAAAAUGUGGUCUACACUAGAAGGGAUUGCUAACA [SameState NG2 #59] (Eterna round: R96, puzzle: Same State NG 2)

1. 0.186 µM
2. 0.913 µM
3. 0.288 µM
4. 0.0227 µM
5. 0.108 µM
6. 0.0189 µM
7. 0.734 µM
8. 0.0895 µM

----------
Test system: MS2 coat protein
Assay: apparent KD of MS2 coat protein; higher = weaker reporter binding
Settings: Eterna round: R107; input ligand: tryptophan 2.4 mM
Kind request: treat 0.02 µM as inclusive, so apparent KD of MS2 coat protein at 0.02 µM or higher is Fulfilled, anything lower is Not fulfilled.

Examples from the recorded data:
Determine whether this sequence has apparent KD of MS2 coat protein no lower than 0.02 µM: AGUAACAUGAGGAUCACCCAUGUAUGAGAAGGAGCGUGUUUUAACACAGGUAGGUCGCUCAAUAUUAUUUACUAGCGAAAGCUAG [JR_SSArginiA_Sub007]
Not fulfilled

Determine whether this sequence has apparent KD of MS2 coat protein no lower than 0.02 µM: AAAAUAAACUCGGCCGCCACUCAACGGACCCUUUGGACAUGAGGAUCACCCAUGUAUUUUGGAAAGAGGACCGGGAGAAAUAAAA [Exclusion - Trytophan B]
Not fulfilled

Determine whether this sequence has apparent KD of MS2 coat protein no lower than 0.02 µM: ACGAUAGGACUUGAGGAACACCCAAGUGAUACCAGCCUGGAAACAGGCCCUUGGCAGCACUAAUACUCCAAUAACCUAUCGAAUA [TheoAX 15 #MicroSwitchBubble #AlternativeMS2]
Fulfilled

Continuing:
Determine whether this sequence has apparent KD of MS2 coat protein no lower than 0.02 µM: ACGAACUGUAGUGAUACCAGACACACAUGAGGAUCACCCAUGUUGUUAGCAUGGUGAAUAGUCCCUUGGCAGCACAGUUAGUUCG [#12 Exclusion-TheophyllineB]
Fulfilled

Determine whether this sequence has apparent KD of MS2 coat protein no lower than 0.02 µM: UUUGGCGGCGAUCUGGGUUUCCCAGAUCGGCGAGGACCGGUACGGCCGCCACUCGUGUUUCUUUGACAUGAGGAUCACCCAUGUA [whbob_SS_trypto A_f4]
Fulfilled

Determine whether this sequence has apparent KD of MS2 coat protein no lower than 0.02 µM: UUGGGUUUGUGAAGGAGCGGGAAAUAUAUAUAUAUAAUCCUAACAUGAGGAUCACCCAUGUCCCAGGUAGGUCGCGCGGGUUUGG [12.N]
Fulfilled

Determine whether this sequence has apparent KD of MS2 coat protein no lower than 0.02 µM: AACAUGAGGAUCACCCAUGUUAAGUAUGAAGGAGCGUCGGAAACGACAGGUAGGUCGCAUACUUGGCCUUGUACUUCGUGUGUCU [#02 Exclusion - Arginine A]
Not fulfilled

Determine whether this sequence has apparent KD of MS2 coat protein no lower than 0.02 µM: AAGGUGAUCCGUGAUACCAGCUCAACAUGAGGAUCACCCAUGUAAGCCUGGAAACAGGCGAGCCCUUGGCAGCACGGUAAUAAUA [(M)'-(Theo1)-(Ms2)-(Theo2)-(M'')]
Not fulfilled
